assay_target: S-adenosylmethionine decarboxylase proenzyme (Escherichia coli) (UniProt P0A7F6)
Sequence (P0A7F6 whole entry, looked up): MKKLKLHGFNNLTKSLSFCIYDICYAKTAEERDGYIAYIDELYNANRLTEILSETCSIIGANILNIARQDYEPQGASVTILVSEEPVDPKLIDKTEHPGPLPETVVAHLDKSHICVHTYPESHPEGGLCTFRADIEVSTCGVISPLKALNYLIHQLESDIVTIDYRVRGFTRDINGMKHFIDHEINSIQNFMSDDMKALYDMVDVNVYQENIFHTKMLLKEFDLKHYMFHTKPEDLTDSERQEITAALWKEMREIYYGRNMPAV
assay_notes: Tested for irreversible inhibitory activity against AdoMet-DC (S-adenosyl-methionine decarboxylase-) isolated from Escherichia coli
assay_endpoint: pKi
pKi is a log-scale quantity: -log10 of the concentration expressed in molar.

// below: answered molecules
# molecule, assay_target, pKi
data = [
    ("C[S+](C[C@H]1O[C@@H](n2cnc3c(N)ncnc32)[C@H](O)[C@@H]1O)C1C=C[C@H](N)C1 (stereo not given in full)", "S-adenosylmethionine decarboxylase proenzyme (Escherichia coli) (UniProt P0A7F6)", 4.74),
    ("C[S+](C[C@H]1O[C@@H](n2cnc3c(N)ncnc32)[C@H](O)[C@@H]1O)C1CCNC1 (stereo not given in full)", "S-adenosylmethionine decarboxylase proenzyme (Escherichia coli) (UniProt P0A7F6)", 3.17),
    ("Nc1ncnc2c1ncn2[C@@H]1O[C@H](CS[C@H]2CN[C@H](C(=O)O)C2)[C@@H](O)[C@H]1O", "S-adenosylmethionine decarboxylase proenzyme (Escherichia coli) (UniProt P0A7F6)", 3.02),
]

Exercise: Returns the measured pKi for the input molecule. Input: `Nc1ncnc2c1ncn2[C@@H]1O[C@H](CS[C@@H]2CN[C@H](C(=O)O)C2)[C@@H](O)[C@H]1O`
Key: 3.32

Exercise: Which pKi value is on record for Nc1ncnc2c1ncn2[C@@H]1O[C@H](CSC2CCNC2)[C@@H](O)[C@H]1O (stereo not given in full) ?
Key: 3.38
